# Experimental system: Interstitial collagenase (Homo sapiens, UniProt P03956)
# Sequence (P03956 whole entry): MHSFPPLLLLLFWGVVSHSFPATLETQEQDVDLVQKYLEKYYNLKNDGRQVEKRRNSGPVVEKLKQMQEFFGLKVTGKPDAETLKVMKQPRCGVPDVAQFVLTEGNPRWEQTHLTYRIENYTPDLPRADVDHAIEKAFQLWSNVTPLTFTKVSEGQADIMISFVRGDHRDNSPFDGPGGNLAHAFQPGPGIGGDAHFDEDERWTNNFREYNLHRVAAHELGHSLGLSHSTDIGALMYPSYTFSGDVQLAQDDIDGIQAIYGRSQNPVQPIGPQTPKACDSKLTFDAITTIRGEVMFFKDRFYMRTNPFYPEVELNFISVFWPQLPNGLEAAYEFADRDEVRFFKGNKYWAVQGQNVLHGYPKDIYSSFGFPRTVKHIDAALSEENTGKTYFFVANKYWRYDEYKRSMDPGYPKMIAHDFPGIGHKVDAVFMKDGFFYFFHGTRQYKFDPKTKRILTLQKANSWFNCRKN
# Experimental protocol: Inhibition of radiolabeled rat skin type I collagen degradation by purified human lung fibroblast collagenase.
Parameter: IC50 (nM)
# unit: nM | format: bare number

As a guide, the following entries are already answered.
| Compound | IC50 [nM] |
| --- | --- |
| CNC(=O)[C@H](Cc1ccc(OC)cc1)NC(=O)[C@H](CC(C)C)[C@@H](S)CC(=O)NCC(=O)O | 27 |
| CNC(=O)[C@H](Cc1ccccc1)NC(=O)[C@H](CC(C)C)[C@@H](S)CC(=O)OC | 2 |
| CNC(=O)[C@H](Cc1ccc(OC)cc1)NC(=O)[C@H](CC(C)C)[C@@H](S)CC(=O)NCC(N)=O | 32 |
| COC(=O)C[C@H](S)[C@@H](CC(C)C)C(=O)N[C@@H](Cc1ccccc1)C(N)=O (stereo in doubt; 58cd) | 190 |

Task: Tell me IC50 reported for CNC(=O)[C@H](Cc1ccc(OC)cc1)NC(=O)[C@H](CC(C)C)[C@@H](S)CC(=O)OC(C)(C)C
Output: 10

Task: Fill in IC50 for record CNC(=O)[C@@H](NC(=O)C(CC(C)C)C(S)CC(=O)OC)C(C)OCc1ccccc1 (stereo in doubt; 57cd)
Output: 13

Task: Given CNC(=O)[C@H](Cc1ccc(OC)cc1)NC(=O)[C@H](CC(C)C)[C@@H](S)CC(=O)NC(CC(C)C)C(=O)OC(C)(C)C (some centres not stated) , respond with its IC50.
Output: 980

Values compiled from ChEMBL document CHEMBL1126554.
